The measurements presented in this section are drawn from patent US20200347139A1.

Target desc: T1, human CLEC12a expressed on transiently transfected HEK 293 cells (human, UniProt Q5QGZ9 1-265)
T1 construct: also called CLL-1; CLL1
T1 sequence: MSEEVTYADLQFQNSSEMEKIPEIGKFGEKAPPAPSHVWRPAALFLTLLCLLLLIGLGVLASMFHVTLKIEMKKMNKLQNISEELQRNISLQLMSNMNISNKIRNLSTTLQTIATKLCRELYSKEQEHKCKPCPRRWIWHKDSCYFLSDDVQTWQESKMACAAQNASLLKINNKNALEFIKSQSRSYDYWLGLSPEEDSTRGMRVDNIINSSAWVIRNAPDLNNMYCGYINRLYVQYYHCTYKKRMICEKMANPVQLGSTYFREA
Experiment summary: flow cytometry on HEK 293 cells transfected with human CLEC12a; apparent Kd, one-site fit
Quantity kind: Kd (nM)
# output: bare number, implied unit nM

Q: Provide Kd value for the following binder: hzME06v16 sdAb (VHH hzME06v16 fused to human IgG1 xELL Fc) (Fc fusion, Humanized version of ME06; No linker is stated; also called hzME06v16-IgG1) EVQLVESGGGEVQPGGSLRLSCAASGFTFDDYAIGWFRQAPGKEREGVSTISSSDGSTYYAESVKGRFTISRDNAKNTVYLQMSSLRAEDTAVYYCALREGLPLLLDTLWRQPVEYDYWGQGTQVTVDKTHTCPPCPAPGGPSVFLFPPKPKDTLMISRTPEVTCVVVDVSHEDPEVKFNWYVDGVEVHNAKTKPREEQYNSTYRVVSVLTVLHQDWLNGKEYKCKVSNKALPAPIEKTISKAKGQPREPQVYTLPPSRDELTKNQVSLTCLVKGFYPSDIAVEWESNGQPENNYKTTPPVLDSDGSFFLYSKLTVDKSRWQQGNVFSCSVMHEALHNHYTQKSLSLSPGK
A: 0.06

Q: Provide Kd value for the following binder: hzMB11v13 sdAb (VHH hzMB11v13 fused to human IgG1 xELL Fc) (Fc fusion, Humanized version of MB11; No linker is stated; also called hzMB11v13-IgG1) EVQLVESGGGEVQPGGSLRLSCAASGFLFSIYDMNWYRQAPGKEREWVAGITNNGYSTAYAESVKGRFTISRDNAKNTIYLQMSSLRAEDTAVYYCHADLTKAYDVEYAWGQGTLVTVDKTHTCPPCPAPGGPSVFLFPPKPKDTLMISRTPEVTCVVVDVSHEDPEVKFNWYVDGVEVHNAKTKPREEQYNSTYRVVSVLTVLHQDWLNGKEYKCKVSNKALPAPIEKTISKAKGQPREPQVYTLPPSRDELTKNQVSLTCLVKGFYPSDIAVEWESNGQPENNYKTTPPVLDSDGSFFLYSKLTVDKSRWQQGNVFSCSVMHEALHNHYTQKSLSLSPGK
A: 0.3
